Target: MAL^TIR (Homo sapiens, UniProt P58753)
Construct: MAL (residues 79–221); 6xHis; made in house; host or cells: E. coli BL21 (DE3)
Sequence (P58753 79-221): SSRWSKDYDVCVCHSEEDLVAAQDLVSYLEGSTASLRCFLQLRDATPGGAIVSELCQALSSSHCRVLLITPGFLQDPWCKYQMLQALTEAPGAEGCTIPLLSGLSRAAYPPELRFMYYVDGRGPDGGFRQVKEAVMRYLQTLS
Assay: T‐Surf phage library (P8 and P3) selection against MAL^TIR, four rounds, NGS read counts
Assay type: binding
Conditions: P8 library, selection against MAL, rank after grouping
recorded.metric: P8_MAL Rank (after)
Please give only the number in your answer, with no unit.

Item "ALLYPFLINLTHPTHF" has what recorded P8_MAL Rank (after)?
522

Item "WFYERLLTVIDRDTEV" has what recorded P8_MAL Rank (after)?
500

Item "AFLYTFLGHLYNALVQAGIH" has what recorded P8_MAL Rank (after)?
497

Item "LFFWARLKNVLGSAGS" has what recorded P8_MAL Rank (after)?
557

Item "TFLGHLYNALVQAGI" has what recorded P8_MAL Rank (after)?
498

Item "AFLDPFLITLIQASNF" has what recorded P8_MAL Rank (after)?
505

Item "QFFWDQLKSILGDTRF" has what recorded P8_MAL Rank (after)?
519

Item "LFFWESLKNVLRKPGL" has what recorded P8_MAL Rank (after)?
495

Item "PFFWEQLRTVLGKPTK" has what recorded P8_MAL Rank (after)?
510

Item "WFYERLVRLILSDTKV" has what recorded P8_MAL Rank (after)?
549

Item "RNFVADLFPALPNKGI" has what recorded P8_MAL Rank (after)?
566

Item "NYASSSWALDELWNIF" has what recorded P8_MAL Rank (after)?
502

Item "DTILKKGESIAPELLG" has what recorded P8_MAL Rank (after)?
548

Item "HQAFWDRLWAKLKAPI" has what recorded P8_MAL Rank (after)?
546

Item "LFFWESLKQLLRSVGH" has what recorded P8_MAL Rank (after)?
538

Item "WFYERLGSLMLRDTNV" has what recorded P8_MAL Rank (after)?
555

Item "ALPYTFLINLTHPTTF" has what recorded P8_MAL Rank (after)?
503

Item "AFFGEQLVTGLAKRSS" has what recorded P8_MAL Rank (after)?
568

Item "LFFWESLKKLLRSAGR" has what recorded P8_MAL Rank (after)?
531

Item "YFLHFLLFSLPENECI" has what recorded P8_MAL Rank (after)?
544

Item "WFYERFVSQIPRDTNL" has what recorded P8_MAL Rank (after)?
550

Item "LFFWEHLKQLLRNDGR" has what recorded P8_MAL Rank (after)?
513

Item "AFLYTFLLNLTHQPTF" has what recorded P8_MAL Rank (after)?
485

Item "WFYESLVSLLTRDTKV" has what recorded P8_MAL Rank (after)?
547

Item "SLLYDHLRCWAFVRF" has what recorded P8_MAL Rank (after)?
501

Item "AFFWAQLKSELGNPSM" has what recorded P8_MAL Rank (after)?
515

Item "AFLGTFLIKLMHATIY" has what recorded P8_MAL Rank (after)?
570

Item "RNFVAYLFKALANTGI" has what recorded P8_MAL Rank (after)?
526

Item "WFFDGLVSLFLGDTKL" has what recorded P8_MAL Rank (after)?
537

Item "TFLGPQYNALVQAGTH" has what recorded P8_MAL Rank (after)?
484

Item "TFLGHLYIAMVQAAIH" has what recorded P8_MAL Rank (after)?
528

Item "HLFCIQLKSILGETSF" has what recorded P8_MAL Rank (after)?
506

Item "WFFERLVRPILRGTQG" has what recorded P8_MAL Rank (after)?
559

Item "TFLGAQHKTVVRAATH" has what recorded P8_MAL Rank (after)?
524

Item "LFLWECLKQLLRSDGR" has what recorded P8_MAL Rank (after)?
507

Item "WFLFTFLINLTHPTNF" has what recorded P8_MAL Rank (after)?
523

Item "AFLYTVLINLTHTTYF" has what recorded P8_MAL Rank (after)?
517

Item "TFLGNLYNPLVQAGLH" has what recorded P8_MAL Rank (after)?
521

Item "RKFWAYLFQALANKGS" has what recorded P8_MAL Rank (after)?
551

Item "DFLSHLIEAFSRMHIN" has what recorded P8_MAL Rank (after)?
504

Item "HFFWFKLKSILGETSF" has what recorded P8_MAL Rank (after)?
542

Item "LFFWDSLKQLLRSAGR" has what recorded P8_MAL Rank (after)?
564
